Test system: rat plasma
Assay: Plasma protein binding, rat plasma
Assay type: in vitro ADME
Conditions: test concentration 3 μg/mL
recorded endpoint: Rat Plasma Protein Binding (%)
Numbers only; they are read as %.

Examples with answers:
compound: CC1CNC(C2CC2)C(=O)N(C)C(C)C(=O)NC(Cc2ccc(O)cc2)C(=O)NCCCC2CCCCC2O1 (mixture of isomers)
measured on: rat plasma
readout units: %
Rat Plasma Protein Binding (%): 97.2
//
compound: CC(C)CC1NC(=O)C(C)N(C)C(=O)C(C2CC2)NC(C)C(C)Oc2ccccc2CCCNC1=O (stereo not drawn)
measured on: rat plasma
readout units: %
Rat Plasma Protein Binding (%): 98.2
//
compound: CC1CNC(C2CC2)C(=O)N(C)C(C)C(=O)NC(CC(C)(C)C)C(=O)NCCCC2CCCCC2O1 (mixture of isomers)
measured on: rat plasma
readout units: %
Rat Plasma Protein Binding (%): 94.0
//
compound: CC1CNC(C2CC2)C(=O)N(C)C(C)C(=O)NC(Cc2ccc(O)c(F)c2)C(=O)NCCCC2CCCCC2O1 (mixture of isomers)
measured on: rat plasma
readout units: %
Rat Plasma Protein Binding (%): 97.3
//
compound: CC1C(=O)NC(Cc2ccc(O)cc2)C(=O)NCCCC2CCCCC2OCCNC(C2CC2)C(=O)N1C (stereo not drawn)
measured on: rat plasma
readout units: %
Rat Plasma Protein Binding (%): 95.5

Here is the next item to consider.
Requested field: Rat Plasma Protein Binding (%). Item: C[C@@H]1C(=O)N[C@H](Cc2ccc(O)cc2)C(=O)NCCCc2ccc(F)cc2OCCN[C@@H](C2CC2)C(=O)N1C 92.8
